Reference for the values: ChEMBL document CHEMBL1144685

test: Intrinsic clearance in rat liver microsomes; format: ADME, Microsome
recorded metric: microsomal CLint (µL/min/mg)

Some compounds with recorded microsomal CLint:
sample smiles	measured
COc1cc2nccc(Oc3ccc4c(C(=O)Nc5ccccn5)cccc4c3)c2cc1OC	90
COc1cc2nccc(Oc3ccc4c(C(=O)Nc5cccnc5)cccc4c3)c2cc1OC	90
COc1cc2nccc(Oc3ccc4c(C(=O)Nc5ccc(Cl)cc5)cccc4c3)c2cc1OC	50
COc1cc2nccc(Oc3ccc4c(C(=O)Nc5cc(C)no5)cccc4c3)c2cc1OC	40

A: COc1cc2nccc(Oc3ccc4c(C(=O)Nc5ccncc5)cccc4c3)c2cc1OC
B: COc1cc2nccc(Oc3ccc4c(C(=O)Nc5ccc(Cl)cc5)cccc4c3F)c2cc1OC
Between A and B , which one shows the smaller microsomal CLint number? Your choice should be expressed through its label.
B
(B: 30 µL/min/mg, A: 80 µL/min/mg)
